Assay: CMC by surface tensiometry
Format: physicochemical
Settings: Table 2
Field 'label' (enum: t / f). Set to t when CMC, Surface Tens. is strictly under 2 mM; else f.

Task item: CMC, Surface Tens. under 2 mM? Item: CCCCCCCCCCOC1O[C@H](CO)[C@@H](O[C@@H]2O[C@H](CO)[C@@H](O)[C@H](O)[C@H]2O)[C@H](O)[C@H]1O (stereo partly drawn) [Decyl Cellobioside]
Reply: t

Task item: CMC, Surface Tens. under 2 mM? Item: CCCCCCCCCCCCOC1O[C@H](CO[C@H]2O[C@H](CO)[C@H](O)[C@H](O)[C@H]2O)[C@@H](O)[C@H](O)[C@H]1O (stereo partly drawn) [Dodecyl Melibioside]
Reply: t

Task item: Criterion: CMC, Surface Tens. strictly below 2 mM. Is it met by CCCCCCCCCCOC1O[C@H](CO[C@H]2O[C@H](CO)[C@H](O)[C@H](O)[C@H]2O)[C@@H](O)[C@H](O)[C@H]1O (stereo partly drawn) [Decyl Melibioside] ?
Reply: f

Task item: Is 2 mM strictly greater than the molecule's reported CMC, Surface Tens.? molecule: CCCCCCCCCCCCOC1O[C@H](CO)[C@@H](O[C@@H]2O[C@H](CO)[C@@H](O)[C@H](O)[C@H]2O)[C@H](O)[C@H]1O (stereo partly drawn) [Dodecyl Cellobioside]
Reply: t

Task item: Please state whether CMC, Surface Tens. is below 2 mM for CCCCCCCCOC1O[C@H](CO[C@H]2O[C@H](CO)[C@H](O)[C@H](O)[C@H]2O)[C@@H](O)[C@H](O)[C@H]1O (stereo partly drawn) [Octyl Melibioside]
Reply: f

Task item: Could you please tell me whether CMC, Surface Tens. recorded for CCCCCCCCOC1O[C@H](CO)[C@@H](O[C@@H]2O[C@H](CO)[C@@H](O)[C@H](O)[C@H]2O)[C@H](O)[C@H]1O (stereo partly drawn) [Octyl Cellobioside] is less than 2 mM?
Reply: f

Data provenance: patent US12478585B2
